- TEST NAME: Octanol-phosphate buffer partition coefficient, log D of the compound at pH 7.4
- Format: physicochemical
RECORDED ENDPOINT: logD
Answers are plain numbers.

Cc1c(-c2ccccc2)c(N2CC[C@H](N(C)C)C2)c2oc(C3CCCC3)nc2c1C#N ... 4.9
Cc1c(C#N)c2c(c(N3CC[C@H](N(C)C)C3)c1-c1ccccc1)OCC(C(C)(C)C)=N2 ... 4.4
Cc1c(-c2ccccc2)c(N2CC[C@H](N(C)C)C2)c2oc(C(C)(C)C)nc2c1C#N.Cl ... 4.6

Would you kindly look at the next entry?
Memo: Cc1c(-c2ccccc2)c(N2CC[C@H](N(C)C)C2)c2oc(N)nc2c1C#N , reported logD: 3.3

Origin of the recorded values: ChEMBL document CHEMBL1268918
